# measured.on: IBAT (Mus musculus (Mouse), UniProt P70172)
# Sequence (P70172 whole entry): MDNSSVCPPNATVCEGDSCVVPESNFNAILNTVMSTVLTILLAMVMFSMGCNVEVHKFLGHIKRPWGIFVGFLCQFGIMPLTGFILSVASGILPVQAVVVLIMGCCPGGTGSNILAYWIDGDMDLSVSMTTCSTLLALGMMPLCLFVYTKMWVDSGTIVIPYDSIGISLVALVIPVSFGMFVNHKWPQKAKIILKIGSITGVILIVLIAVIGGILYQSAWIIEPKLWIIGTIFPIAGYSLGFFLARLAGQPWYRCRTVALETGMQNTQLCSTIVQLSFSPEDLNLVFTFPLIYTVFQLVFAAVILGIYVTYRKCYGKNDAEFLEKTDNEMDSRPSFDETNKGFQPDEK
# experiment.notes: 75SeHCAT intestinal absorption in ApoE knock out mice (IBAT inhibitory effect)
# Type: in vivo
# applied.conditions: po, oral dose 0.156 μmol/kg, 75SeHCAT absorption over 24 hours
# Lookup of reported inhibition at 0.156 µmol/kg keyed by entry
Give your result in % as a bare value.

For orientation, consider the following solved cases.
CCCCC1(CCCC)CN(c2ccccc2)c2cc(SC)c(OCC(=O)N[C@@H](C(=O)N[C@H](C(=O)O)C(C)C)c3ccccc3)cc2S(=O)(=O)N1 :: 66
CCCCC1(CCCC)CN(c2ccccc2)c2cc(SC)c(OCC(=O)N[C@@H](C(=O)N[C@@H](CCC)C(=O)O)c3ccc(O)cc3)cc2S(=O)(=O)N1 :: 67
CCCCC1(CCCC)CN(c2ccccc2)c2cc(SC)c(OCC(=O)N[C@@H](C(=O)N[C@@H](C)C(=O)O)c3ccccc3)cc2S(=O)(=O)N1 :: 68

Query string: Quick one: inhibition at 0.156 µmol/kg of CCCCC1(CCCC)CN(c2ccccc2)c2cc(SC)c(OCC(=O)N[C@@H](C(=O)NCC(=O)O)c3ccccc3)cc2S(=O)(=O)N1 ?
Result string: 43

Query string: // returns reported inhibition at 0.156 µmol/kg for input CCCCC1(CCCC)CN(c2ccccc2)c2cc(SC)c(OCC(=O)N[C@@H](C(=O)N[C@@H](CSC)C(=O)O)c3ccccc3)cc2S(=O)(=O)N1
Result string: 63

Query string: Param item = CCCCC1(CCCC)CN(c2ccccc2)c2cc(SC)c(OCC(=O)N[C@@H](C(=O)N[C@@H](CSC)C(=O)O)c3ccc(O)cc3)cc2S(=O)(=O)N1 ; retrieve measured inhibition at 0.156 µmol/kg.
Result string: 59

Cited source for all entries: patent US10093697B2
